- experimental_target: 85/88 kDa calcium-independent phospholipase A2 (Homo sapiens)
- assay_info: Inhibition of human group 6A cytosolic Ca(2+)-independent phospholipase A2 at 0.091 mole fraction by modified Dole assay
Assign inhibition to each entry below.

CCCCCCCCCCCCCCC(=O)C(=O)NCCC(=O)OC < 25%
CCCCCCCCCCCCCCC(=O)C(=O)N[C@H](CCC(=O)OC)CC(C)C 65%

Query inhibition on 85/88 kDa calcium-independent phospholipase A2 (Homo sapiens) for CCCC[C@@H](CCC(=O)O)NC(=O)CCCCCCc1ccccc1 < 25%

====

- experimental_target: 85/88 kDa calcium-independent phospholipase A2 (Homo sapiens)
- assay_info: Inhibition of human group 6A cytosolic Ca(2+)-independent phospholipase A2 at 0.091 mole fraction by modified Dole assay
reported_endpoint: inhibition

CCCCCCCCCCCCCCC(=O)C(=O)N[C@H](/C=C/C=C/C(=O)O)CCCC < 25%
CCCC[C@H](CCC(=O)O)NC(=O)CCCCCCc1ccccc1 < 25%

Can you share its inhibition? I mean this molecule: CCCCCCCCCCCCCCC(=O)C(=O)Nc1ccc(C(=O)OCC)cc1 < 25%

====

Assign inhibition to each entry below.
- experimental_target: Cytosolic phospholipase A2 (Homo sapiens)
- assay_info: Inhibition of human group 4A cytosolic Ca2+-dependent phospholipase A2 at 0.091 mole fraction by modified Dole assay
One number for each entry, in %.

Dear colleague, could you send me inhibition for each of the items below? Thanks.
1. CCCCCCCCCCCCCCC(=O)C(=O)Nc1ccc(C(=O)OCC)cc1
2. CCCCCCCCCCCCCCC(=O)C(=O)N[C@H](CCC(=O)OC)CC(C)C
3. CCCCCCCCCCCCCCC(=O)C(=O)N[C@H](/C=C/C=C/C(=O)O)CCCC

[87, 83, 85]
